- Tested on: HEK-293T
- Assay Name: Multiplex assay against HEK293T
- Assay type: toxicity, cell-based
- Condition Details: human, 12 h, 1 µM, compound concentration 1 uM, replicate 1
Observation Type: Population Mitochondria Different-Phenotype (%)
Enter your answer as a number in %; do not include the unit.

Solved cases (3 shown):
[[record]]
molecule = "CCC(=O)OCC(=O)[C@@]1(OC(=O)CC)[C@@H](C)C[C@H]2[C@@H]3CCC4=CC(=O)C=C[C@]4(C)[C@@]3(Cl)[C@@H](O)C[C@@]21C [BECLOMETHASONE DIPROPIONATE]"
result_value = 60

[[record]]
molecule = "COC(c1ccccc1)(c1ccccc1)[C@H](Oc1nc(C)cc(C)n1)C(=O)O"
result_value = 53

[[record]]
molecule = "CSc1nc(NC2CCCC2)c([N+](=O)[O-])c(NC2CCCC2)n1"
result_value = 41


query: // fetch Population Mitochondria Different-Phenotype (%) given entry C[C@H](NC(=O)CNC(=O)c1cccc(Cl)c1)c1ccccc1
result: 39

query: // fetch Population Mitochondria Different-Phenotype (%) given entry COc1ccc2c(c1OCc1ccccc1)C[C@@H](C(=O)O)N(C(=O)C(c1ccccc1)c1ccccc1)C2
result: 44

query: // fetch Population Mitochondria Different-Phenotype (%) given entry Cc1nn(C)c2nc(NNC(=O)Nc3cc(Cl)nc(Cl)c3)cc(C(C)C)c12
result: 37

query: // fetch Population Mitochondria Different-Phenotype (%) given entry Cc1cc(NC(=O)NCCN2CCC(O)(Cc3ccccc3)CC2)c2ccccc2n1
result: 42

query: // fetch Population Mitochondria Different-Phenotype (%) given entry CN1CCC(C(=O)c2cccc(NC(=O)c3c(F)cc(F)cc3F)n2)CC1
result: 51

query: // fetch Population Mitochondria Different-Phenotype (%) given entry OCCCNc1cc(-c2ccnc(Nc3cccc(Cl)c3)n2)ccn1
result: 82

query: // fetch Population Mitochondria Different-Phenotype (%) given entry COc1cc(OC2CCN(C(C)=O)CC2)ccc1C(=O)N1CCC(N2C(=O)OCc3ccccc32)CC1
result: 37

Data origin, for the record: ChEMBL document CHEMBL5058577
